Hey, just so you know, these numbers are from the supplement of paper PMC7877785.

- TEST NAME: self-splicing fitness, log relative to wild type (ln ratio); higher = more splicing; Tetrahymena group I intron in knt gene, E. coli kanamycin selection, DiMSum; sequences stand for … in CUCUCU…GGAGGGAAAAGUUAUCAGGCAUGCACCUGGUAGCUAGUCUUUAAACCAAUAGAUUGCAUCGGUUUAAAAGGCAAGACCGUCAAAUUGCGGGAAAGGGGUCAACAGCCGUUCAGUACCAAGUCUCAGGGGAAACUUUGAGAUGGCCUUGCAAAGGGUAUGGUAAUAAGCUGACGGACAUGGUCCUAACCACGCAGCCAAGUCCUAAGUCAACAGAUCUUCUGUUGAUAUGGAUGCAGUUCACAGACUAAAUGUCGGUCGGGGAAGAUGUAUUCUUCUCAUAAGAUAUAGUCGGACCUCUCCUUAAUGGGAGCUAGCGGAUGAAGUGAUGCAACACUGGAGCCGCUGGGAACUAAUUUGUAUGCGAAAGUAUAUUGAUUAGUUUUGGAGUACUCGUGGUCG;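 further: selection with 25 µg/mL kanamycin versus none on LB agar overnight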
- EXPERIMENTAL CONTEXT: 30 °C
RECORDED ENDPOINT: self-splicing fitness (ln)

SEQUENCE RECORD | ASSAY RESULT
ACCGAGCAAUAUUACGGUGA | -3.07
CGCUAGCAAUAUUACGAAAG | -1.17
GCGGAGCAAUAUUACGACGU | -4.57
CGCCAGCAAUAUUACGAUAA | -3.9
GAAUAGCAAUAUUACGGUAU | -3.54
GGCUAGCAAUAUUACGGUUU | 0.173
AAACAGCAAUAUUACGACUU | 0.0535
AUUAAGCAAUAUUACGAAAC | -3.37
UAUGAGCAAUAUUACGGACG | -2.79
AUAGAGCAAUAUUACGUGGC | -3.18
GUAAAGCAAUAUUACGGUCG | -0.377
CAACAGCAAUAUUACGUUGA | -3.22
GCCGAGCAAUAUUACGGCAA | -2.4

---

Item-by-item account of self-splicing fitness (ln)
- TEST NAME: self-splicing fitness, log relative to wild type (ln ratio); higher = more splicing; Tetrahymena group I intron in knt gene, E. coli kanamycin selection, DiMSum; sequences stand for … in CUCUCU…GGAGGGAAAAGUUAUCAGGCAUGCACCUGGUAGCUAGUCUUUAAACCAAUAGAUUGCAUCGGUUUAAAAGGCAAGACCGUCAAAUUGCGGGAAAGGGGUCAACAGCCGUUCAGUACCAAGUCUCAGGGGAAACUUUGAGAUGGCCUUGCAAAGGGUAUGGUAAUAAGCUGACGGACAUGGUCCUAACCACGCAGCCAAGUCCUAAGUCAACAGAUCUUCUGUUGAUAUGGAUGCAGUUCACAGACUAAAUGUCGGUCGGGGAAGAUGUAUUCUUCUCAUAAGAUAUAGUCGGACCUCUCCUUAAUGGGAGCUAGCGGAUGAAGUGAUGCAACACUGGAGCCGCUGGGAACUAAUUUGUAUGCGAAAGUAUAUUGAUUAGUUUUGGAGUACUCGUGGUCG
- EXPERIMENTAL CONTEXT: 37 °C

SEQUENCE RECORD | self-splicing fitness (ln)
AUAGAGCAAUAUUACGACAC | -0.0339
GACAAGCAAUAUUACGGUCU | -2.42
UCAGAGCAAUAUUACGAGCU | -1.58
AUCCAGCAAUAUUACGUGAU | -1.04
GAGUAGCAAUAUUACGUGAU | -2.12
ACCUAGCAAUAUUACGAGGA | -0.9
CCUUAGCAAUAUUACGAGCA | -3.17
AAUGAGCAAUAUUACGCACA | -1.38
AGAUAGCAAUAUUACGUUGU | -2.39
GGUCAGCAAUAUUACGACGU | 0.477
CGAUAGCAAUAUUACGCACA | -0.0385
GGUGAGCAAUAUUACGACGG | -1.74
